Target: human URAT1 (Homo sapiens)
Construct: Full-length cDNA of human URAT1 (hURAT1)
Sequence (Q96S37 whole entry): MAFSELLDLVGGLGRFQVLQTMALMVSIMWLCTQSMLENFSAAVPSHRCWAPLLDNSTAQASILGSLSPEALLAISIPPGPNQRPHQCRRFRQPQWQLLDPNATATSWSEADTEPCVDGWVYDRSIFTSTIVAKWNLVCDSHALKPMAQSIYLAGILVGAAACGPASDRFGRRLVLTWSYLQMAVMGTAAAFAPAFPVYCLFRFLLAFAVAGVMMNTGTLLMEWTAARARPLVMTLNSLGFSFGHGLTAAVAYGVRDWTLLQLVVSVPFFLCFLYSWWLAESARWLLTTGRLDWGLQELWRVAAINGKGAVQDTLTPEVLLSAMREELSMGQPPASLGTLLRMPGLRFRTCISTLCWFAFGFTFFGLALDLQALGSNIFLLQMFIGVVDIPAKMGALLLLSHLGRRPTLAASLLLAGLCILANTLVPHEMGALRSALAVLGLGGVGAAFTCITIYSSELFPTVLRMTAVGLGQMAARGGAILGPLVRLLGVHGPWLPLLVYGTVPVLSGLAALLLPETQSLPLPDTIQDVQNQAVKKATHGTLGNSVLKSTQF
Experiment: Test for inhibition of uric acid transport using human URAT1-expressing cells;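 note: three stars up to 0.2 µM two stars 0.2-2 µM one star 2-20 µM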
Type: cell-based
Conditions: HEK 293 cells expressing human URAT1; 14C-labeled uric acid 25 μM; uptake 37° C. for 5 min
Measured Metric: Inhibitory Activity (IC50 of uric acid transport inhibition)

{"Smiles Repr": "CSc1nc(-c2cccnc2)n(Cc2cc(Cl)ccc2Cl)c1C(=O)O", "Reported": "* * *"}
{"Smiles Repr": "O=C(O)c1nc(-c2cncc(Cl)c2)n(Cc2cc(Cl)ccc2Cl)c1C(=O)O", "Reported": "* * *"}
{"Smiles Repr": "Cc1cncc(-c2nc(C)c(C(=O)O)n2Cc2cc(C)ccc2C)c1", "Reported": "* * *"}
{"Smiles Repr": "O=C(O)c1cnc(-c2cccnc2)n1Cc1cc(Cl)ccc1Cl", "Reported": "* * *"}
{"Smiles Repr": "O=C(O)c1c(C2CC2)nc(-c2cccnc2)n1Cc1csc2cccc(Cl)c12", "Reported": "* *"}

====

Molecular target: human URAT1 (Homo sapiens)
Construct: Full-length cDNA of human URAT1 (hURAT1)
Assay: Test for inhibition of uric acid transport using human URAT1-expressing cells;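 note: three stars up to 0.2 µM two stars 0.2-2 µM one star 2-20 µM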
Format: cell-based
Conditions: HEK 293 cells expressing human URAT1; 14C-labeled uric acid 25 μM; uptake 37° C. for 5 min
Measured Metric: Inhibitory Activity (IC50 of uric acid transport inhibition)

{"Smiles Repr": "Cc1nc(Oc2cnccc2Br)n(Cc2cc(Cl)ccc2Cl)c1C(=O)O", "Reported": "* * *"}
{"Smiles Repr": "CC(C)c1nc(-c2cccnc2)n(Cc2cccc3ccccc23)c1C(=O)O", "Reported": "* *"}
{"Smiles Repr": "Cc1nc(Oc2ccccn2)n(Cc2cc(Cl)ccc2Cl)c1C(=O)O", "Reported": "* *"}
{"Smiles Repr": "CSc1cncc(-c2nc(C)c(C(=O)O)n2Cc2cc(Cl)ccc2Cl)c1", "Reported": "* * *"}
{"Smiles Repr": "O=C(O)c1c(C2CC2)nc(-c2cncc(F)c2)n1Cc1cccc2ccccc12", "Reported": "* *"}
{"Smiles Repr": "Cc1nc(-c2cncc(C3CC3)c2)n(Cc2cc(Cl)ccc2Cl)c1C(=O)O", "Reported": "* * *"}
{"Smiles Repr": "Cc1nc(Oc2cccnc2)n(Cc2cc(Cl)ccc2Cl)c1C(=O)O", "Reported": "* * *"}
{"Smiles Repr": "Cc1nc(-c2cncc(F)c2)n(Cc2cccc3ccsc23)c1C(=O)O", "Reported": "* *"}
{"Smiles Repr": "Cc1ccc(Cn2c(-c3cccnc3)nc(C3CC3)c2C(=O)O)c2ccccc12", "Reported": "* * *"}
{"Smiles Repr": "Cc1nc(-c2cccnc2)n(Cc2cccc(Cl)c2Cl)c1C(=O)O", "Reported": "* *"}
{"Smiles Repr": "O=C(O)c1c(C(F)(F)F)nc(-c2cccnc2)n1Cc1csc2ccccc12", "Reported": "* *"}
{"Smiles Repr": "COc1ncccc1-c1nc(C)c(C(=O)O)n1Cc1cc(Cl)ccc1Cl", "Reported": "* *"}
{"Smiles Repr": "COc1nc(-c2cccnc2)n(Cc2cc(Cl)ccc2Cl)c1C(=O)O", "Reported": "* * *"}
{"Smiles Repr": "CCc1nc(-c2cncc(Cl)c2)n(Cc2cccc3ccccc23)c1C(=O)O", "Reported": "* * *"}
{"Smiles Repr": "O=C(O)c1c(CO)nc(-c2cncc(Cl)c2)n1Cc1cc(Cl)ccc1Cl", "Reported": "* * *"}
{"Smiles Repr": "Cc1nc(Oc2cnccc2Cl)n(Cc2cc(Cl)ccc2Cl)c1C(=O)O", "Reported": "* * *"}
{"Smiles Repr": "O=C(O)c1c(I)nc(-c2cccnc2)n1Cc1cc(Cl)ccc1Cl", "Reported": "* * *"}
{"Smiles Repr": "Cc1nc(-c2cncc(Cl)c2)n(Cc2cc(Cl)ccc2Cl)c1C(=O)O", "Reported": "* * *"}
